Recorded half-life by entry
Test Description: Enzymatic stability in MDCK cell homogenates
Assay type: in vitro ADME
Test Settings: dog, pH 7.4, 37°C, protein 500 μg/mL, mean ± S.D., read-out: Half Life, Homogenates from MDCK cells
Give just the number in min; leave the unit off.

1. NCC(=O)OC[C@H]1O[C@@H](n2cc(F)c(=O)[nH]c2=O)C[C@@H]1O
11.2

input: // fetch half-life given entry CC(C)C[C@H](N)C(=O)OC[C@H]1O[C@@H](n2cc(F)c(=O)[nH]c2=O)C[C@@H]1O
output: 9.2

input: // fetch half-life given entry CC[C@H](C)[C@H](N)C(=O)OC[C@H]1O[C@@H](n2cc(F)c(=O)[nH]c2=O)C[C@@H]1O
output: 245

input: // fetch half-life given entry CC(C)[C@H](N)C(=O)OC[C@H]1O[C@@H](n2cc(F)c(=O)[nH]c2=O)C[C@@H]1O
output: 74.7

###

Test Description: Enzymatic stability in MDCK cell homogenates
Assay type: in vitro ADME
Test Settings: dog, pH 7.4, 37°C, protein 500 μg/mL, mean ± S.D., read-out: Half Life, Homogenates from MDCK cells
Reported Endpoint: half-life (h)
Give just the number in h; leave the unit off.

The following compounds have reported results that may help.
1. O=c1[nH]c(=O)n([C@H]2C[C@H](O)[C@@H](CO)O2)cc1F
1.15
2. N[C@@H](Cc1ccccc1)C(=O)OC[C@H]1O[C@@H](n2cc(F)c(=O)[nH]c2=O)C[C@@H]1O
0.1

// switching to the query compound
input: // fetch half-life given entry CC(C)[C@@H](N)C(=O)OC[C@H]1O[C@@H](n2cc(F)c(=O)[nH]c2=O)C[C@@H]1O
output: 5.19

###

Target System: hPEPT1 (Homo sapiens, UniProt P46059)
Sequence (P46059 1-708): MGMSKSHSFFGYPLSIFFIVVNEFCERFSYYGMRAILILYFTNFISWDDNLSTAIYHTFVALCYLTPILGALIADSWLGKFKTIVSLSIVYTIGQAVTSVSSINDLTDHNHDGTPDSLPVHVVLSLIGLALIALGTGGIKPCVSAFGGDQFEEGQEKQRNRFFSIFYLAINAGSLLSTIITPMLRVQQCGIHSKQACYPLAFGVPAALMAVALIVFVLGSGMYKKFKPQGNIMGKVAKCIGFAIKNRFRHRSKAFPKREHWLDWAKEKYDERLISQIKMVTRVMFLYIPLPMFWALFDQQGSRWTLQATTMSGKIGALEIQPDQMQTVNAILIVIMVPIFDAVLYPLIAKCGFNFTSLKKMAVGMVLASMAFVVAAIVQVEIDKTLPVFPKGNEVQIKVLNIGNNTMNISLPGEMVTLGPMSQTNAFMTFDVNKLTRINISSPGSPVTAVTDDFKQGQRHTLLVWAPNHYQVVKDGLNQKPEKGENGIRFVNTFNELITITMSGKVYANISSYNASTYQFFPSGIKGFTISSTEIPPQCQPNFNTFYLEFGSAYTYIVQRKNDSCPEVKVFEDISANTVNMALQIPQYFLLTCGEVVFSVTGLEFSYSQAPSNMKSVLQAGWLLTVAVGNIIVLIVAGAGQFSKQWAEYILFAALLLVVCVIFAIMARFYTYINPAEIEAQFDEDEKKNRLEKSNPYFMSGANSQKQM
Test Description: [3H]Gly-Sar uptake inhibition in Caco-2 cells
Assay type: cell-based
Test Settings: 10 µmol/L Gly-Sar, 30 minutes, mean ± S.D., read-out: IC50 Value, inhibition of Gly-Sar uptake, Caco-2 cell
Description: Caco-2 cells at nine days post-seeding, and AsPC-1 cells at four days post-seeding were incubated with 10 µmol/L Gly-Sar (9.98 µmol/L Gly-Sar and 0.02 µmol/L [3H]Gly-Sar) along with various prodrug concentrations (5–0.05 mmol/L) for 30 minutes. […] The amount of cell-associated radioactivity was determined by scintillation counting (Beckman LS-9000, Beckman Instruments, Fullerton, CA, USA). […]
Recorded IC50 by entry
Give just the number in µM; leave the unit off.

1. N[C@@H](Cc1ccccc1)C(=O)OC[C@H]1O[C@@H](n2cc(F)c(=O)[nH]c2=O)C[C@@H]1O
2100
2. CC(C)C[C@H](N)C(=O)OC[C@H]1O[C@@H](n2cc(F)c(=O)[nH]c2=O)C[C@@H]1O
2000
3. NCC(=O)OC[C@H]1O[C@@H](n2cc(F)c(=O)[nH]c2=O)C[C@@H]1O
2300
4. CC(C)[C@@H](N)C(=O)OC[C@H]1O[C@@H](n2cc(F)c(=O)[nH]c2=O)C[C@@H]1O
2600
5. CC[C@H](C)[C@H](N)C(=O)OC[C@H]1O[C@@H](n2cc(F)c(=O)[nH]c2=O)C[C@@H]1O
700
6. O=c1[nH]c(=O)n([C@H]2C[C@H](O)[C@@H](CO)O2)cc1F
7300

// switching to the query compound
input: // fetch IC50 given entry CC(C)[C@H](N)C(=O)OC[C@H]1O[C@@H](n2cc(F)c(=O)[nH]c2=O)C[C@@H]1O
output: 1000

###

Test Description: Enzymatic stability in AsPC-1 cell homogenates
Type: in vitro ADME
Test Settings: human, AsPC-1 cell homogenate, pH 7.4; 37°C, protein 500 μg/mL, mean ± S.D.; read-out: Half Life, Homogenates from AsPC-1 cells
Reported Endpoint: log10(half-life) (log10 of the value in min)
Would you kindly interpret these values as log10 of half-life expressed in min?

1) CC[C@H](C)[C@H](N)C(=O)OC[C@H]1O[C@@H](n2cc(F)c(=O)[nH]c2=O)C[C@@H]1O [5'-O-L-isoleucyl-floxuridine]
2.30
2) NCC(=O)OC[C@H]1O[C@@H](n2cc(F)c(=O)[nH]c2=O)C[C@@H]1O [5'-O-L-glycyl-floxuridine]
1.44
3) CC(C)C[C@H](N)C(=O)OC[C@H]1O[C@@H](n2cc(F)c(=O)[nH]c2=O)C[C@@H]1O [5'-O-L-leucyl-floxuridine]
0.30

input: // fetch log10(half-life) given entry O=c1[nH]c(=O)n([C@H]2C[C@H](O)[C@@H](CO)O2)cc1F [Floxuridine, 5-fluoro-2'-deoxyuridine]
output: 0.81

input: // fetch log10(half-life) given entry CC(C)[C@H](N)C(=O)OC[C@H]1O[C@@H](n2cc(F)c(=O)[nH]c2=O)C[C@@H]1O [5'-O-L-valyl-floxuridine]
output: 1.27

input: // fetch log10(half-life) given entry CC(C)[C@@H](N)C(=O)OC[C@H]1O[C@@H](n2cc(F)c(=O)[nH]c2=O)C[C@@H]1O [5'-O-D-valyl-floxuridine]
output: 2.46

input: // fetch log10(half-life) given entry N[C@@H](Cc1ccccc1)C(=O)OC[C@H]1O[C@@H](n2cc(F)c(=O)[nH]c2=O)C[C@@H]1O [5'-O-L-phenylalanyl-floxuridine]
output: 1.07

###

Recorded half-life by entry
Test Description: Enzymatic stability in Caco-2 cell homogenates
Type: in vitro ADME
Test Settings: human, Caco-2, pH 7.4; 37°C, protein 500 μg/mL, mean ± S.D.; read-out: Half Life, Homogenates from Caco-2 cells
Give just the number in min; leave the unit off.

The following compounds have reported results that may help.
1) N[C@@H](Cc1ccccc1)C(=O)OC[C@H]1O[C@@H](n2cc(F)c(=O)[nH]c2=O)C[C@@H]1O [5'-O-L-phenylalanyl-floxuridine]
11.1
2) CC(C)[C@H](N)C(=O)OC[C@H]1O[C@@H](n2cc(F)c(=O)[nH]c2=O)C[C@@H]1O [5'-O-L-valyl-floxuridine]
9.4
3) NCC(=O)OC[C@H]1O[C@@H](n2cc(F)c(=O)[nH]c2=O)C[C@@H]1O [5'-O-L-glycyl-floxuridine]
24.1

// switching to the query compound
input: // fetch half-life given entry CC(C)[C@@H](N)C(=O)OC[C@H]1O[C@@H](n2cc(F)c(=O)[nH]c2=O)C[C@@H]1O [5'-O-D-valyl-floxuridine]
output: 343

###

Test Description: Chemical stability (nonenzymatic hydrolysis) in pH 7.4 phosphate buffer
Assay type: physicochemical
Test Settings: 37°C, mean ± S.D.
Recorded half-life by entry

The following compounds have reported results that may help.
1) CC(C)[C@@H](N)C(=O)OC[C@H]1O[C@@H](n2cc(F)c(=O)[nH]c2=O)C[C@@H]1O [5'-O-D-valyl-floxuridine]
5.75 h
2) NCC(=O)OC[C@H]1O[C@@H](n2cc(F)c(=O)[nH]c2=O)C[C@@H]1O [5'-O-L-glycyl-floxuridine]
1.43 h
3) N[C@@H](Cc1ccccc1)C(=O)OC[C@H]1O[C@@H](n2cc(F)c(=O)[nH]c2=O)C[C@@H]1O [5'-O-L-phenylalanyl-floxuridine]
3.69 h

input: // fetch half-life given entry CC(C)C[C@H](N)C(=O)OC[C@H]1O[C@@H](n2cc(F)c(=O)[nH]c2=O)C[C@@H]1O [5'-O-L-leucyl-floxuridine]
output: 1.29 h

input: // fetch half-life given entry CC(C)[C@H](N)C(=O)OC[C@H]1O[C@@H](n2cc(F)c(=O)[nH]c2=O)C[C@@H]1O [5'-O-L-valyl-floxuridine]
output: 5.06 h

Taken from paper PMC6244841.
